biological target: Cyclin-dependent kinase 7 (Homo sapiens, UniProt P50613)
Sequence (P50613 whole entry): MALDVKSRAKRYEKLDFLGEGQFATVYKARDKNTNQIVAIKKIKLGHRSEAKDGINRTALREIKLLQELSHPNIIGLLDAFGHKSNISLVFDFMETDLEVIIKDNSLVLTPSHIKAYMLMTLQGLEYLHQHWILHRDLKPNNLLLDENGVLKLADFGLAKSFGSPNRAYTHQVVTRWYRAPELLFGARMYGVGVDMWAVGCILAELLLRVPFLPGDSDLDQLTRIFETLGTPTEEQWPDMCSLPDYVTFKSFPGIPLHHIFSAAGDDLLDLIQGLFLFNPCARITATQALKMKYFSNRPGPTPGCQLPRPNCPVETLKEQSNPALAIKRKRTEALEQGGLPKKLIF
pIC50: −log10 of the molar value.
REPORTED PROPERTY: pIC50

{"COMPOUND STRUCTURE STRING": "c1cc(N2CCNCC2)cc(Nc2ncc(-c3cncc(-c4cn[nH]c4)c3)s2)n1", "pIC50": 6.59}

P: NCCNC(=O)c1cncc(-c2cnc(Nc3cc(N4CCC(F)CC4)ccn3)s2)c1
Q: O=C(NCC(F)(F)F)c1cncc(-c2cnc(Nc3cc(N4CCOCC4)ccn3)s2)c1
R: c1ncc(-c2cnc(Nc3cc(N4CCNCC4)ccn3)s2)cn1
S: CS(=O)(=O)N1CCN(c2ccnc(Nc3ncc(-c4cncc(C(=O)NCCN)c4)s3)c2)CC1
(Q) // sort entries: pIC50, high to low Would you mind listing the labels in the order asked for?
(A) S, P, Q, R
(S: 6.77, P: 6.46, Q: 6.15, R: 4.96)

====

test system: NCI-H1299; experiment: Inhibition of DNA damage-induced cell cycle arrest in human H1299 cells assessed as progression into mitosis measuring mitosis specific-phosphorylation of nucleolin after 8 hrs by checkpoint escape assay; assay type: functional, cell-based; details: NCI-H1299, 8 h
REPORTED PROPERTY: EC50 (nM)
Value expressed in nM; do not type the unit.

{"COMPOUND STRUCTURE STRING": "CS(=O)(=O)N1CCN(c2ccnc(Nc3ncc(-c4cncc(C(=O)NCC(F)(F)F)c4)s3)c2)CC1", "EC50 (nM)": 106}
{"COMPOUND STRUCTURE STRING": "c1cc(N2CCNCC2)cc(Nc2ncc(-c3cncc(-c4cn[nH]c4)c3)s2)n1", "EC50 (nM)": 5530}
{"COMPOUND STRUCTURE STRING": "c1cncc(-c2cncc(-c3cnc(Nc4cc(N5CCNCC5)ccn4)s3)c2)c1", "EC50 (nM)": 570}
{"COMPOUND STRUCTURE STRING": "NCCNC(=O)c1cncc(-c2cnc(Nc3cc(N4CCOCC4)ccn3)s2)c1", "EC50 (nM)": 460}
{"COMPOUND STRUCTURE STRING": "O=C(NCC(F)(F)F)c1cncc(-c2cnc(Nc3cc(N4CCOCC4)ccn3)s2)c1", "EC50 (nM)": 198}

Below: the item to evaluate.
(Q) Item NCCNC(=O)c1cncc(-c2cnc(Nc3ncccc3Cl)s2)c1 has what recorded EC50?
(A) 330

====

target: Serine/threonine-protein kinase Chk1 (Homo sapiens)
Sequence (O14757 whole entry): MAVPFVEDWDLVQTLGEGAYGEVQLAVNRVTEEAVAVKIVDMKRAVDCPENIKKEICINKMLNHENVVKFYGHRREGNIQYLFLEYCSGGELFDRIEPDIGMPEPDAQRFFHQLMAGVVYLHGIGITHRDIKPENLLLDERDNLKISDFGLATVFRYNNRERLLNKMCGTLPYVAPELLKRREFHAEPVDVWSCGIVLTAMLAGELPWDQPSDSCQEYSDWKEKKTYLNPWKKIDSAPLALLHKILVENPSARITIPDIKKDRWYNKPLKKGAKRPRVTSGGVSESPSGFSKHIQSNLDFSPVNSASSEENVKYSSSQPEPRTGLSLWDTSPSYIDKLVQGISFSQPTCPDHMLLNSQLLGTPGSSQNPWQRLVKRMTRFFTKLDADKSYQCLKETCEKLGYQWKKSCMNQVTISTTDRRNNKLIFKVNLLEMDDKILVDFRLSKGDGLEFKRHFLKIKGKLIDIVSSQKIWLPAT
REPORTED PROPERTY: IC50 (nM)

{"COMPOUND STRUCTURE STRING": "Cc1cccnc1Nc1ncc(-c2cncc(C(=O)NCCN)c2)s1", "SCALE UNIT": "nM", "IC50": 0.4}
{"COMPOUND STRUCTURE STRING": "NCCNC(=O)c1cncc(-c2cnc(Nc3cc(Cl)ccn3)s2)c1", "SCALE UNIT": "nM", "IC50": 16}
{"COMPOUND STRUCTURE STRING": "CS(=O)(=O)N1CCN(c2ccnc(Nc3ncc(-c4cncc(C(=O)NCC(F)(F)F)c4)s3)c2)CC1", "SCALE UNIT": "nM", "IC50": 1.7}
{"COMPOUND STRUCTURE STRING": "NC(=O)c1cncc(-c2cnc(Nc3cc(N4CCOCC4)ccn3)s2)c1", "SCALE UNIT": "nM", "IC50": 10}

A: Cc1ccc(-c2cnc(Nc3cccc(NCCCN)n3)s2)cn1
B: c1cc(Nc2ncc(-c3cncnc3)s2)nc(N2CCNCC2)c1
(Q) Endpoint returns the identifier whose IC50 is numerically larger, either A or B . Your answer should be the label of the entry you select.
(A) B

A: NCCNC(=O)c1cncc(-c2cnc(Nc3ccccc3Cl)s2)c1
B: NCCNC(=O)c1cncc(-c2cnc(Nc3ncccc3Cl)s2)c1
C: Cn1cc(-c2cncc(-c3cnc(Nc4cc(N5CCNCC5)ccn4)s3)c2)cn1
(Q) Exam item: list the entries in increasing order of IC50. Would you mind listing the labels in the order asked for?
(A) B, C, A
(B: 0.3 nM, C: 6 nM, A: 33 nM)

====

The following molecules have recorded pIC50 on UniProtKB P50613.
pIC50: −log10 of the molar value.

{"COMPOUND STRUCTURE STRING": "CNC(=O)c1cncc(-c2cnc(Nc3cc(N4CCOCC4)ccn3)s2)c1", "pIC50": "< 5.00"}
{"COMPOUND STRUCTURE STRING": "Cn1cc(-c2cncc(-c3cnc(Nc4cc(N5CCNCC5)ccn4)s3)c2)cn1", "pIC50": "< 5.70"}
{"COMPOUND STRUCTURE STRING": "NCCNC(=O)c1cncc(-c2cnc(Nc3cc(N4CCOCC4)ccn3)s2)c1", "pIC50": 6.47}
{"COMPOUND STRUCTURE STRING": "O=C(O)c1cncc(-c2cnc(Nc3cc(N4CCNCC4)ccn3)s2)c1", "pIC50": "< 5.00"}
{"COMPOUND STRUCTURE STRING": "Cc1ccc(NC(=O)c2cncc(-c3cnc(Nc4cc(N5CCOCC5)ccn4)s3)c2)s1", "pIC50": "< 5.00"}

(Q) Field: pIC50 (UniProtKB P50613). Entry: O=C(NCCO)c1cncc(-c2cnc(Nc3cc(N4CCOCC4)ccn3)s2)c1
(A) < 5.00

(Q) Field: pIC50 (UniProtKB P50613). Entry: NCCNC(=O)c1cncc(-c2cnc(Nc3cc(Cl)ccn3)s2)c1
(A) 6.03

(Q) Field: pIC50 (UniProtKB P50613). Entry: NCCCCc1cncc(-c2cnc(Nc3cc(N4CCOCC4)ccn3)s2)c1
(A) < 5.00

(Q) Field: pIC50 (UniProtKB P50613). Entry: NCCNC(=O)c1cncc(-c2cnc(Nc3ccccc3Cl)s2)c1
(A) < 5.00

(Q) Field: pIC50 (UniProtKB P50613). Entry: Brc1cncc(-c2cnc(Nc3cc(N4CCNCC4)ccn3)s2)c1
(A) 6.32

(Q) Field: pIC50 (UniProtKB P50613). Entry: c1cncc(-c2cncc(-c3cnc(Nc4cc(N5CCOCC5)ccn4)s3)c2)c1
(A) < 5.00

(Q) Field: pIC50 (UniProtKB P50613). Entry: Cc1ccc(-c2cnc(Nc3cc(N4CCNCC4)ccn3)s2)cn1
(A) < 4.70

====

test system: NCI-H1299; experiment: Inhibition of DNA damage-induced cell cycle arrest in human H1299 cells assessed as progression into mitosis measuring mitosis specific-phosphorylation of nucleolin after 8 hrs by checkpoint escape assay; type: functional, cell-based; details: NCI-H1299, 8 h
REPORTED PROPERTY: EC50 (nM)
Value expressed in nM; do not type the unit.

Solved cases (3 shown):
{"COMPOUND STRUCTURE STRING": "NCCNC(=O)c1cncc(-c2cnc(Nc3cc(N4CCC(F)CC4)ccn3)s2)c1", "RECORDED RESULT": 484}
{"COMPOUND STRUCTURE STRING": "c1ncc(-c2cnc(Nc3cc(N4CCNCC4)ccn3)s2)cn1", "RECORDED RESULT": 1530}
{"COMPOUND STRUCTURE STRING": "CC(=O)N1CCN(c2ccnc(Nc3ncc(-c4cncc(C(=O)NCCN)c4)s3)c2)CC1", "RECORDED RESULT": 1210}

(Q) Field: EC50 (NCI-H1299). Entry: Cc1ccc(NC(=O)c2cncc(-c3cnc(Nc4cc(N5CCOCC5)ccn4)s3)c2)s1
(A) 920

(Q) Field: EC50 (NCI-H1299). Entry: NCCNC(=O)c1cncc(-c2cnc(Nc3cc(Cl)ccn3)s2)c1
(A) 940

(Q) Field: EC50 (NCI-H1299). Entry: c1cn(-c2cncc(-c3cnc(Nc4cc(N5CCOCC5)ccn4)s3)c2)nn1
(A) 1390

(Q) Field: EC50 (NCI-H1299). Entry: Cc1ccc(-c2cnc(Nc3cc(N4CCNCC4)ccn3)s2)cn1
(A) 1370

(Q) Field: EC50 (NCI-H1299). Entry: Cn1cc(-c2cncc(-c3cnc(Nc4cc(N5CCNCC5)ccn4)s3)c2)cn1
(A) 1330

(Q) Field: EC50 (NCI-H1299). Entry: CS(=O)(=O)N1CCN(c2ccnc(Nc3ncc(-c4cncc(C(=O)NCCN)c4)s3)c2)CC1
(A) 500

(Q) Field: EC50 (NCI-H1299). Entry: Cc1cccnc1Nc1ncc(-c2cncc(C(=O)NCCN)c2)s1
(A) 430

(Q) Field: EC50 (NCI-H1299). Entry: CNC(=O)c1cncc(-c2cnc(Nc3cc(N4CCOCC4)ccn3)s2)c1
(A) 300

====

test system: NCI-H1299; assay: Inhibition of DNA damage-induced cell cycle arrest in human H1299 cells assessed as progression into mitosis measuring mitosis specific-phosphorylation of nucleolin after 8 hrs by checkpoint escape assay; type: functional, cell-based; settings: NCI-H1299, 8 h
REPORTED PROPERTY: EC50

Solved cases (3 shown):
{"COMPOUND STRUCTURE STRING": "c1ncc(-c2cncc(-c3cnc(Nc4cc(N5CCOCC5)ccn4)s3)c2)cn1", "EC50": "> 10 µM"}
{"COMPOUND STRUCTURE STRING": "c1ccc(-c2cnc(Nc3cccc(N4CCNCC4)n3)s2)cc1", "EC50": "> 16.7 µM"}
{"COMPOUND STRUCTURE STRING": "c1cncc(-c2cncc(-c3cnc(Nc4cc(N5CCOCC5)ccn4)s3)c2)c1", "EC50": "> 10 µM"}

(Q) Item NC(=O)c1cncc(-c2cnc(Nc3cc(N4CCOCC4)ccn3)s2)c1 has what recorded EC50?
(A) > 10 µM

(Q) Item O=C(O)c1cncc(-c2cnc(Nc3cc(N4CCNCC4)ccn3)s2)c1 has what recorded EC50?
(A) > 10 µM

(Q) Item NCCNC(=O)c1cccc(-c2cnc(Nc3cc(N4CCC(F)(F)CC4)ccn3)s2)c1 has what recorded EC50?
(A) > 10 µM

(Q) Item Cc1ccc(-c2cnc(Nc3cccc(N4CCNCC4)n3)s2)cn1 has what recorded EC50?
(A) > 16.7 µM

(Q) Item NCCNC(=O)c1cncc(-c2cnc(Nc3ccccc3Cl)s2)c1 has what recorded EC50?
(A) > 10 µM

(Q) Item O=C(NCCO)c1cncc(-c2cnc(Nc3cc(N4CCOCC4)ccn3)s2)c1 has what recorded EC50?
(A) > 10 µM

(Q) Item Cc1ccc(-c2cnc(Nc3cccc(NCCCN)n3)s2)cn1 has what recorded EC50?
(A) > 16.7 µM

(Q) Item Brc1cncc(-c2cnc(Nc3cc(N4CCNCC4)ccn3)s2)c1 has what recorded EC50?
(A) > 50 µM

(Q) Item O=C(CN1CCN(c2ccnc(Nc3ncc(-c4cccnc4)s3)c2)CC1)N1CCOCC1 has what recorded EC50?
(A) > 50 µM
